Cited source: ChEMBL document CHEMBL1127395

- System: Proteus vulgaris
- protocol_description: In vitro minimum inhibitory concentration for Proteus vulgaris (ATCC-6059) by agar dilution method
- Assay type: functional
- applied_conditions: Proteus vulgaris; read-out: MIC
# maps each entry to its MIC
measured_metric: MIC

CC(C)(O/N=C(\C(=O)NC1C(=O)N2C(C(=O)[O-])=C(CSc3nc(N)cc(N)[n+]3-c3ccccc3)CSC12)c1cnc(N)s1)C(=O)O (stereo unspecified) = 0.13 µg/mL
Cn1cn[n+]2c(SCC3=C(C(=O)[O-])N4C(=O)C(NC(=O)/C(=N\OC(C)(C)C(=O)O)c5cnc(N)s5)C4SC3)nc(N)cc12 (stereo unspecified) = 0.06 µg/mL
CC(C)(O/N=C(\C(=O)NC1C(=O)N2C(C(=O)[O-])=C(CSc3nc(N)cc(N)[n+]3C3CC3)CSC12)c1cnc(N)s1)C(=O)O (stereo unspecified) = 0.13 µg/mL
CC[n+]1c(N)cc(N)nc1SCC1=C(C(=O)[O-])N2C(=O)C(NC(=O)/C(=N\OC(C)(C)C(=O)O)c3cnc(N)s3)C2SC1 (stereo unspecified) = 0.03 µg/mL
CC(C)(O/N=C(\C(=O)NC1C(=O)N2C(C(=O)O)=C(CSc3nccc(N)n3)CSC12)c1cnc(N)s1)C(=O)O (stereo unspecified) = 0.063 µg/mL
C[n+]1ccc(N)nc1SCC1=C(C(=O)[O-])N2C(=O)C(NC(=O)/C(=N\OC(C)(C)C(=O)O)c3cnc(N)s3)C2SC1 (stereo unspecified) = 0.06 µg/mL

---

# maps each entry to its MIC
- Tested on: Citrobacter freundii
- protocol_description: In vitro minimum inhibitory concentration for Citrobacter freundii (ATCC-8090) by agar dilution method
- Format: functional
- applied_conditions: Citrobacter freundii; read-out: MIC
measured_metric: MIC (µg/mL)

CC(C)(O/N=C(\C(=O)NC1C(=O)N2C(C(=O)[O-])=C(CSc3nc(N)cc(N)[n+]3N)CSC12)c1cnc(N)s1)C(=O)O (stereo not drawn) = 0.06
C[n+]1cc(Cc2ccccc2)c(N)nc1SCC1=C(C(=O)[O-])N2C(=O)C(NC(=O)/C(=N\OC(C)(C)C(=O)O)c3cnc(N)s3)C2SC1 (stereo not drawn) = 0.06
CC[n+]1c(N)cc(N)nc1SCC1=C(C(=O)[O-])N2C(=O)C(NC(=O)/C(=N\OC(C)(C)C(=O)O)c3cnc(N)s3)C2SC1 (stereo not drawn) = 0.13
CC(C)(O/N=C(\C(=O)NC1C(=O)N2C(C(=O)[O-])=C(CSc3nc(N)c4c([n+]3N)CCCC4)CSC12)c1cnc(N)s1)C(=O)O (stereo not drawn) = 0.06
CN[n+]1c(N)cc(N)nc1SCC1=C(C(=O)[O-])N2C(=O)C(NC(=O)/C(=N\OC(C)(C)C(=O)O)c3cnc(N)s3)C2SC1 (stereo not drawn) = 0.5
C[n+]1ccc(N)nc1SCC1=C(C(=O)[O-])N2C(=O)C(NC(=O)/C(=N\OC(C)(C)C(=O)O)c3cnc(N)s3)C2SC1 (stereo not drawn) = 0.03
CC(C)(O/N=C(\C(=O)NC1C(=O)N2C(C(=O)[O-])=C(CSc3nc(N)cc(N)[n+]3-c3ccc(Cl)cc3)CSC12)c1cnc(N)s1)C(=O)O (stereo not drawn) = 0.25
CCCC[n+]1c(N)cc(N)nc1SCC1=C(C(=O)[O-])N2C(=O)C(NC(=O)/C(=N\OC(C)(C)C(=O)O)c3cnc(N)s3)C2SC1 (stereo not drawn) = 0.13
Cc1c(N)nc(SCC2=C(C(=O)[O-])N3C(=O)C(NC(=O)/C(=N\OC(C)(C)C(=O)O)c4cnc(N)s4)C3SC2)[n+]2nc(C)n(C)c12 (stereo not drawn) = 0.13
CCn1cc[n+]2c(SCC3=C(C(=O)[O-])N4C(=O)C(NC(=O)/C(=N\OC(C)(C)C(=O)O)c5cnc(N)s5)C4SC3)nc(N)cc12 (stereo not drawn) = 0.06
CCC[n+]1c(N)cc(N)nc1SCC1=C(C(=O)[O-])N2C(=O)C(NC(=O)/C(=N\OC(C)(C)C(=O)O)c3cnc(N)s3)C2SC1 (stereo not drawn) = 0.25
CN(C)c1cc2n(C)cc[n+]2c(SCC2=C(C(=O)[O-])N3C(=O)C(NC(=O)/C(=N\OC(C)(C)C(=O)O)c4cnc(N)s4)C3SC2)n1 (stereo not drawn) = 0.25
Cn1c(O)c[n+]2c(SCC3=C(C(=O)[O-])N4C(=O)C(NC(=O)/C(=N\OC(C)(C)C(=O)O)c5cnc(N)s5)C4SC3)nc(N)cc12 (stereo not drawn) = 0.25
